Values from patent US10030021B2

Target: μ-opioid receptor (Homo sapiens, UniProt P35372)
Sequence (P35372 whole entry, species assumed): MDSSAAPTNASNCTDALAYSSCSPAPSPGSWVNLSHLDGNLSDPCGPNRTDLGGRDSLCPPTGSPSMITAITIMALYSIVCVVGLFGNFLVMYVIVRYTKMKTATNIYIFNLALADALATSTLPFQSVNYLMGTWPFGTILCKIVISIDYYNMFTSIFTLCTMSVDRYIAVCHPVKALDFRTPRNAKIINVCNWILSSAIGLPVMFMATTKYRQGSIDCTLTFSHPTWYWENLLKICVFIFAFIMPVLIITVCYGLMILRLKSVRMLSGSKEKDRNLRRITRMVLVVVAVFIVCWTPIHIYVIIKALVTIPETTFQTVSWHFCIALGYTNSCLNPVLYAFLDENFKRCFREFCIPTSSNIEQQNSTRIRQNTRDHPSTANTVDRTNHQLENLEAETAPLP
Experiment: μ-opioid receptor [35S]GTPγS functional assay
pEC50: −log10 of the molar value.
Kindly state pEC50 for each of the entries shown.

The cases that follow already have their pEC50 on record.
{"chemical_structure": "CCN1C(=O)N(CC)[C@]2(CC[C@@]3(O)[C@H]4Cc5ccc(C#N)cc5[C@@]3(CCN4C)C2)C1=O", "value_measured": "< 4.70"}
{"chemical_structure": "COc1ccc2c(c1)[C@]13CCN(CCCN(C)C)[C@H](C2)[C@]1(O)CC[C@]1(C3)C(=O)N(CC2CC2)C(=O)N1CC1CC1", "value_measured": "< 4.70"}
{"chemical_structure": "CCN1C(=O)N(CC)[C@]2(CC[C@@]3(O)[C@H]4Cc5ccc(OC)cc5[C@@]3(CCN4)C2)C1=O", "value_measured": "< 4.70"}
{"chemical_structure": "COc1ccc2c(c1)[C@]13CCN[C@H](C2)[C@]1(O)CC[C@]1(C3)C(=O)N(CC2CC2)C(=O)N1CC1CC1", "value_measured": "< 4.70"}

Quick batch: pEC50 for everything below.
1. CN(C)CCN1CC[C@]23C[C@@]4(CC[C@@]2(O)[C@H]1Cc1ccc(O)cc13)C(=O)N(CC1CC1)C(=O)N4CC1CC1
2. CN(C)CCCN1CC[C@]23C[C@@]4(CC[C@@]2(O)[C@H]1Cc1ccc(O)cc13)C(=O)N(CC1CC1)C(=O)N4CC1CC1

OUTPUT:
< 4.70
< 4.70
